# Lookup of reported IC50 keyed by entry
Target: PE-labeled human PD-L1-Ig binding to Jurkat cell line over-expressing human PD-1 (Jurkat-PD-1) (Homo sapiens, UniProt Q15116)
Construct: expressed in transfected cells; host or cells: Jurkat
Sequence (Q15116 25-288): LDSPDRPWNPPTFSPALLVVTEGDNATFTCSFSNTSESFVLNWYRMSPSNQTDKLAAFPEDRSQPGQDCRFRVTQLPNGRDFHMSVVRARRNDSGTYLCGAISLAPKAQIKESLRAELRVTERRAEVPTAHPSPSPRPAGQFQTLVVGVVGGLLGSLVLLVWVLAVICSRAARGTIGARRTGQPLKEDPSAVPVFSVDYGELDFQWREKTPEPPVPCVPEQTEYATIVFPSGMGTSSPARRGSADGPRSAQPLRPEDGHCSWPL
Experiment: Jurkat-PD-1 Cell Binding High-Content Screening Assay (CBA): Method 1
Settings: Jurkat-hPD-1 cells, PE-labeled PD-L1-Ig 20 nM final; read-out: Jurkat HPDL1 PD1 IC50 (uM) (Method 1)
Bridge positions count the residues as written; N and C are the ends. Square brackets hold non-standard residues; d marks the D form. Peptide text beside a SMILES is read from it. Bip = N[C@@H](Cc1ccc(-c2ccccc2)cc1)C(=O)O; NMeL = CN[C@@H](CC(C)C)C(=O)O; NMeA = CN[C@@H](C)C(=O)O; Dab = NCC[C@H](N)C(=O)O
reported.metric: IC50

[[record]]
compound = "CC(C)C[C@@H]1NC(=O)[C@H](Cc2c[nH]c3ccccc23)NC(=O)[C@H](CC(=O)O)NC(=O)[C@H](Cc2ccc(O)cc2)NC(=O)[C@H](Cc2ccccc2)NC(=O)CSC[C@@H](C(=O)NCC(N)=O)NC(=O)[C@H](CO)NC(=O)[C@H](C(C)C)NC(=O)[C@H](CC(C)C)NC(=O)[C@H](CCN)NC(=O)[C@@H](CC(C)C)NC(=O)[C@H](C)N(C)C(=O)[C@H](CCC(=O)O)NC(=O)[C@H](Cc2ccc(-c3ccccc3)cc2)NC1=O [Compound 1513] ({CH2CO}-FYDWL[Bip]E[NMeA][dL][Dab]LVSCG-NH2; thioether N-14)"
value_reported = "0.02 µM"

[[record]]
compound = "CC(C)C[C@@H]1NC(=O)[C@H](CCN)NC(=O)[C@@H](CC(C)C)NC(=O)[C@H](CC(C)C)N(C)C(=O)[C@H](C(C)C)NC(=O)[C@H](Cc2ccc(-c3ccccc3)cc2)NC(=O)[C@H](C(C)C)NC(=O)[C@H](Cc2c[nH]c3ccccc23)NC(=O)[C@H](CC(=O)O)NC(=O)[C@H](Cc2ccc(O)cc2)NC(=O)[C@H](CC(N)=O)NC(=O)CSC[C@@H](C(=O)N[C@@H](C)C(N)=O)NC(=O)[C@H]([C@@H](C)O)NC(=O)[C@H](C(C)C)NC1=O [Compound 1371] ({CH2CO}-NYDWV[Bip]V[NMeL][dL][Dab]LVTCA-NH2; thioether N-14)"
value_reported = "0.03 µM"

